molecular target: Glycogen synthase kinase-3 beta (Homo sapiens, UniProt P49841); assay: Inhibition of Homo sapiens (human) recombinant GSK3beta after 30 min by Kinase-Glo assay
Sequence (P49841 whole entry): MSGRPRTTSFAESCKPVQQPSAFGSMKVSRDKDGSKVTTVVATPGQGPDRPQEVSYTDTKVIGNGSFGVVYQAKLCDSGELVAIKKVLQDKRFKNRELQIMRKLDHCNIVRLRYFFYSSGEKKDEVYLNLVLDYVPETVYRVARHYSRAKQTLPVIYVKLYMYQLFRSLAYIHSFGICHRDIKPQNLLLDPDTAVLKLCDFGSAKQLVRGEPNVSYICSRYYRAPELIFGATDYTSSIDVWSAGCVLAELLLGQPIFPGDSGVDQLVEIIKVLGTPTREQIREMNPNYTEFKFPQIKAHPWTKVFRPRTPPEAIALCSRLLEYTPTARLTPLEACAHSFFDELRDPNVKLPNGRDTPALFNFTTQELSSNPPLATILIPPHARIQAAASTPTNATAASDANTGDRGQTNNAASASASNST
pIC50: −log10 of the molar value.
If the reported pIC50 equals or exceeds 5, assign Fulfilled. If not, assign Not fulfilled.

Record excerpt, results attached:
- COc1ccc([C@@H]2CC(=O)c3c(O)cc(O[C@@H]4O[C@H](CO[C@@H]5O[C@@H](C)[C@H](O)[C@@H](O)[C@H]5O)[C@@H](O)[C@H](O)[C@H]4O)cc3O2)cc1O: Not fulfilled
- O=c1c(O)c(-c2ccc(O)c(O)c2)oc2cc(O)cc(O)c12: Fulfilled
- O=C1C[C@@H](c2ccc(O)cc2)Oc2cc(O)cc(O)c21: Not fulfilled
- COc1ccc([C@@H]2CC(=O)c3c(O)cc(O)cc3O2)cc1O: Not fulfilled
- C[C@@H]1O[C@@H](O[C@H]2[C@H](Oc3cc(O)c4c(c3)O[C@H](c3ccc(O)cc3)CC4=O)O[C@H](CO)[C@@H](O)[C@@H]2O)[C@H](O)[C@H](O)[C@H]1O: Not fulfilled

Exam item: Is the recorded value of pIC50 equal to or greater than 5 for this molecule? `O=c1cc(-c2ccc(O)c(O)c2)oc2cc(O)cc(O)c12`
Marked response: Fulfilled

Exam item: Is the recorded value of pIC50 equal to or greater than 5 for this molecule? `O=c1cc(-c2ccc(O)cc2)oc2cc(O)cc(O)c12`
Marked response: Fulfilled

###

pKi, Acetylcholinesterase (Homo sapiens): measured values
Quick note: pKi values are minus log10 of concentrations in mol/L.

Examples with answers:
• CC(C)=CCc1c(-c2ccc(O)cc2O)oc2c(CC=C(C)C)c(O)cc(O)c2c1=O = 5.51
• CC(C)=CC1Oc2cc(O)ccc2-c2oc3c4c(cc(O)c3c(=O)c21)OC(C)(C)C=C4 (stereo not given) = 5.51
• CC(C)=CCC/C(C)=C/Cc1cc(-c2cc(=O)c3c(O)cc(O)cc3o2)c(O)cc1O = 5.51
• CC1(C)C=Cc2c(cc(O)c3c(=O)c4c(oc23)-c2ccc(O)cc2OC(C(C)(C)O)C4)O1 (stereo not given) = 5.51

According to the records, this compound `CC(C)(O)CCc1c(-c2ccc(O)cc2O)oc2c3c(cc(O)c2c1=O)OC(C)(C)C=C3` displays pKi of 5.51
